Molecular target: T1, human CD123 (human, UniProt P26951 19-378)
T1 construct: whole, on cells; also called IL-3R alpha; IL3R-alpha
T1 sequence (P26951 19-378): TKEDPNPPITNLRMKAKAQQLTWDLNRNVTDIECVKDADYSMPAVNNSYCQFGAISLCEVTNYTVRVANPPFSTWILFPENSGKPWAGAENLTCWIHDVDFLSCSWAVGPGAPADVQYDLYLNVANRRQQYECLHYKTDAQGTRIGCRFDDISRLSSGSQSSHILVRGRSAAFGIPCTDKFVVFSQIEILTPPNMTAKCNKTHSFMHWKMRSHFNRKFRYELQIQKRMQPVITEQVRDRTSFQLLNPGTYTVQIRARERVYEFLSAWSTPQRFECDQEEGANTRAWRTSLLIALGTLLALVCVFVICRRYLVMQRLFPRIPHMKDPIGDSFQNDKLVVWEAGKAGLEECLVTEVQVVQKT
Assay: saturation binding of AlexaFluor-488 labeled mAb, flow cytometry on HEK293F cells expressing human CD123; apparent Kd
Method: One hundred thousand CD123-positive cells (HEK-293F cells transfected to express human or cynomologus CD123) were transferred to 96-well plates. […] Cells were pelleted by centrifugation, washed 3 times with a PBS+1% BSA solution, and resuspended in 125 μL of PBS+1% BSA. Fluorescence was analyzed using a flow cytometer, and the percent of saturated fluorescent signal was used to determine percent bound and to subsequently calculate apparent Kd.
Kindly supply the reported pKd values for the records listed here.
Give bare numbers, as −log10 of the molar value.

These recorded examples may help you get a feel for the data.
h7G3, G1 (antibody, V domains shown, also called humanized 7G3, IgG1) VH: QVQLVQSGAEVKKPGASVKMSCKASGYTFTDYYMKWVKQAPGQGLEWIGDIIPSNGATFYNQKFKGKATLTVDRSISTAYMHLNRLRSDDTAVYYCTRSHLLRASWFAYWGQGTLVTVSS VL: DFVMTQSPDSLAVSLGERATINCKSSQSLLNSGNQKNYLTWYLQKPGQPPKLLIYWASTRESGVPDRFSGSGSGTDFTLTISSLQAEDVAVYYCQNDYSYPYTFGQGTKLEIKR ... 8.57
murine 7G3 antibody (antibody, V domains shown, Murine monoclonal antibody; also called m7G3) VH: EVQLQQSGPELVKPGASVKMSCKASGYTFTDYYMKWVKQSHGKSLEWIGDIIPSNGATFYNQKFKGKATLTVDRSSSTAYMHLNSLTSEDSAVYYCTRSHLLRASWFAYWGQGTLVTVSA VL: DFVMTQSPSSLTVTAGEKVTMSCKSSQSLLNSGNQKNYLTWYLQKPGQPPKLLIYWASTRESGVPDRFTGSGSGTDFTLTISSVQAEDLAVYYCQNDYSYPYTFGGGTKLEIKR ... 8.57
Chimeric 7G3 (antibody, V domains shown) VH: EVQLQQSGPELVKPGASVKMSCKASGYTFTDYYMKWVKQSHGKSLEWIGDIIPSNGATFYNQKFKGKATLTVDRSSSTAYMHLNSLTSEDSAVYYCTRSHLLRASWFAYWGQGTLVTVSA VL: DFVMTQSPSSLTVTAGEKVTMSCKSSQSLLNSGNQKNYLTWYLQKPGQPPKLLIYWASTRESGVPDRFTGSGSGTDFTLTISSVQAEDLAVYYCQNDYSYPYTFGGGTKLEIKR ... 8.57

Summary for this binder, h7G3EC (antibody, human IgG1, kappa, V domains shown, EC means cysteine at position 239 (EU index) of the IgG1 heavy chain; Unconjugated antibody; also called humanized 7G3 with S239C) VH: QVQLVQSGAEVKKPGASVKMSCKASGYTFTDYYMKWVKQAPGQGLEWIGDIIPSNGATFYNQKFKGKATLTVDRSISTAYMHLNRLRSDDTAVYYCTRSHLLRASWFAYWGQGTLVTVSS VL: DFVMTQSPDSLAVSLGERATINCKSSQSLLNSGNQKNYLTWYLQKPGQPPKLLIYWASTRESGVPDRFSGSGSGTDFTLTISSLQAEDVAVYYCQNDYSYPYTFGQGTKLEIKR : pKd is 8.57
